The measured values listed here are drawn from paper PMC11460632.

# measurement target: recombinant human TSG-6 (Homo sapiens, UniProt P19827+P98066)
# Construct: TSG-6–mediated HC-transfer assays (using full-length TSG6); purchased R&D Systems
# Sequence (P98066 18-277): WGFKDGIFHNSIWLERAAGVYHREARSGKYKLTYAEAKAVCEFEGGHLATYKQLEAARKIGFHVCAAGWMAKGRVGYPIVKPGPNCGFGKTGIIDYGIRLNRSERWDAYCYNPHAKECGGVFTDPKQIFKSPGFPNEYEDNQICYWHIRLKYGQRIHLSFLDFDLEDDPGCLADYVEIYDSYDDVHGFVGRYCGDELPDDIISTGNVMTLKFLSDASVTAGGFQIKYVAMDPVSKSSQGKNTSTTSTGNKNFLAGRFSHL
# Sequence (P19827 35-672 limits assumed): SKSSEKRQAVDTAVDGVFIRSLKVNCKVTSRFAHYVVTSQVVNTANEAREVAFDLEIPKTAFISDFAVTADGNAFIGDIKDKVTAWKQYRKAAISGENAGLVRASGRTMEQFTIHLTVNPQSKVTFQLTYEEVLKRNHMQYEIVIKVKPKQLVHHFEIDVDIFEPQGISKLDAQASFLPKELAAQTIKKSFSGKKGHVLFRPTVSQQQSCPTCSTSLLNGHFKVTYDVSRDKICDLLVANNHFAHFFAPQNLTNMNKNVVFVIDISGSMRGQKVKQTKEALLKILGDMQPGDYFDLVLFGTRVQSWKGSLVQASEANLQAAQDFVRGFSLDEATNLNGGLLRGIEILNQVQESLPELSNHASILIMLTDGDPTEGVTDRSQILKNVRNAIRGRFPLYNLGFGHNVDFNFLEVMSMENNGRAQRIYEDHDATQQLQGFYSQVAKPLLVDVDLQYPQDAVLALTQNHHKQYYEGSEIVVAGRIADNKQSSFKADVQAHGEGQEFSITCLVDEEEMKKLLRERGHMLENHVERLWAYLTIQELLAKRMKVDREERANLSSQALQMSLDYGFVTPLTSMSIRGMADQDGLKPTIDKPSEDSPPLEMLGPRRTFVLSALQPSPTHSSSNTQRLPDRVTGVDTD
# method: In vitro HC-transfer assay (IαI + rhTSG-6, Western blot anti-HC1)
# Format: biochemical
# test context: Table 6; 15 μM HA, 1.8 μM IαI, rhTSG-6, 2 h at 37 °C
# Protocol: Covalent transfer of HC from IαI onto unmodified and chemically modified HA oligosaccharides was analyzed using the assay described previously ([26]). All reactions were performed using a buffer of 20 mM Hepes, pH 7.5, 150 mM NaCl, and 5 mM MgCl2. […] Reaction mixtures were analyzed by SDS-PAGE using 4 to 12% bis-tris polyacrylamide gels (Invitrogen). […]
readout type: Substrate for HC transfer

{"smiles text": "CC(=O)N[C@H]1[C@H](O[C@H]2[C@H](O)[C@@H](O)[C@H](O[C@H]3[C@H](O)[C@@H](CO)O[C@@H](O[C@H]4[C@H](O)[C@@H](O)[C@H](O[C@@H]([C@H](O)[C@H](O)CO)[C@H](CNc5ccc(C(=O)O)cc5)NC(C)=O)O[C@@H]4C(=O)O)[C@@H]3NC(C)=O)O[C@@H]2C(=O)O)O[C@H](CO)[C@@H](O)[C@@H]1O[C@@H]1O[C@H](C(=O)O)[C@@H](O)[C@H](O)[C@H]1O", "measurement target": "recombinant human TSG-6 (Homo sapiens, UniProt P19827+P98066)", "readout type": "Substrate for HC transfer", "experimental result": "Yes"}
{"smiles text": "COc1ccc(C(=O)O)c(NC[C@H](NC(C)=O)[C@@H](O[C@@H]2O[C@H](C(=O)O)[C@@H](O[C@@H]3O[C@H](CO)[C@@H](O)[C@H](O[C@@H]4O[C@H](C(=O)O)[C@@H](O[C@@H]5O[C@H](CO)[C@@H](O)[C@H](O[C@@H]6O[C@H](C(=O)O)[C@@H](O[C@@H]7O[C@H](CO)[C@@H](O)[C@H](O[C@@H]8O[C@H](C(=O)O)[C@@H](O)[C@H](O)[C@H]8O)[C@H]7NC(C)=O)[C@H](O)[C@H]6O)[C@H]5NC(C)=O)[C@H](O)[C@H]4O)[C@H]3NC(C)=O)[C@H](O)[C@H]2O)[C@H](O)[C@H](O)CO)c1", "measurement target": "recombinant human TSG-6 (Homo sapiens, UniProt P19827+P98066)", "readout type": "Substrate for HC transfer", "experimental result": "Yes"}
{"smiles text": "CC(=O)N[C@H]1[C@H](O[C@H]2[C@H](O)[C@@H](O)[C@H](O[C@H]3[C@H](O)[C@@H](CO)O[C@@H](O[C@H]4[C@H](O)[C@@H](O)[C@H](O[C@H]5[C@H](O)[C@@H](CO)O[C@@H](O[C@H]6[C@H](O)[C@@H](O)[C@H](O[C@@H]([C@H](O)[C@H](O)CO)[C@H](CNc7cc[nH]n7)NC(C)=O)O[C@@H]6C(=O)O)[C@@H]5NC(C)=O)O[C@@H]4C(=O)O)[C@@H]3NC(C)=O)O[C@@H]2C(=O)O)O[C@H](CO)[C@@H](O)[C@@H]1O[C@@H]1O[C@H](C(=O)O)[C@@H](O)[C@H](O)[C@H]1O", "measurement target": "recombinant human TSG-6 (Homo sapiens, UniProt P19827+P98066)", "readout type": "Substrate for HC transfer", "experimental result": "Yes"}
